Test: Metabolic stability in human liver microsomes assessed as phase 2 glucuronidation in presence of UDPGA
Type: ADME, Microsome
Details: read-out: Stability
Please provide measured microsomal CLint for the entries that follow.

I am curious: what microsomal CLint value has been reported for CCC(=O)O[C@]1(C(=O)SCF)[C@H](C)C[C@H]2[C@@H]3C[C@H](F)C4=CC(=O)C=C[C@]4(C)[C@@]3(F)[C@@H](O)C[C@@]21C [FLUTICASONE PROPIONATE] ?
< 3.5 µL/min/mg

I am curious: what microsomal CLint value has been reported for "C[C@]12C=CC(=O)C=C1[C@@H](F)C[C@H]1[C@@H]3C[C@H]4O[C@@H](c5ccc(CSc6ccc(O)c(Cl)c6)cc5)O[C@@]4(C(=O)CO)[C@@]3(C)C[C@H](O)[C@@]12F" ?
100 µL/min/mg

I am curious: what microsomal CLint value has been reported for "CSc1cccc(Sc2ccc([C@@H]3O[C@@H]4C[C@H]5[C@@H]6C[C@H](F)C7=CC(=O)C=C[C@]7(C)[C@@]6(F)[C@@H](O)C[C@]5(C)[C@]4(C(=O)CO)O3)cc2)c1" ?
< 3.5 µL/min/mg
